system-tested: human FFA1 (Homo sapiens)
measurement-protocol: DMR agonist assay in CHO-FFA1 cells
experimental-conditions: CHO-FFA1 cell, EC50, NPs-derived FFA4 agonists
experimental-endpoint: pEC50
Note on pEC50: it is the negative log10 of concentration, concentration in mol/L.

**Query** Please report the recorded pEC50 for CC(=O)O[C@H](CC=C(C)C)C1=CC(=O)c2c(O)ccc(O)c2C1=O [Acetylshikonin, acetylshikonin] .
**Result** 5.21

###

system-tested: human FFA1 (Homo sapiens, UniProt O14842)
Sequence (O14842 whole entry): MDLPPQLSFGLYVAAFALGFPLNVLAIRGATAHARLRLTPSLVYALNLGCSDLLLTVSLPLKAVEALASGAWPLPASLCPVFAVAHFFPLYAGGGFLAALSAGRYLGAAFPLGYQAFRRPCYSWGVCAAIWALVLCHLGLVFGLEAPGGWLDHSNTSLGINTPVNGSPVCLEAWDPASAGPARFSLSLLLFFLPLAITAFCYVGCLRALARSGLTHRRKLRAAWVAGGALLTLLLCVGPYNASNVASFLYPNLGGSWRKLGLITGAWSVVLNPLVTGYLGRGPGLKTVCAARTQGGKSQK
measurement-protocol: DMR desensitization assay in CHO-FFA1 cells
experimental-conditions: CHO-FFA1 cell Desensitization IC50, IC50 to desensitize the DMR of 1 μM GW9508 in CHO-FFA1 cells
experimental-endpoint: IC50 (nM)
Value expressed in nM; do not type the unit.

**Query** Value lookup for IC50; key = O=C(O)CCc1ccc(NCc2cccc(Oc3ccccc3)c2)cc1 [GW9508]
**Result** 140

###

system-tested: UniProt:Q5NUL3
Sequence (Q5NUL3 1-361): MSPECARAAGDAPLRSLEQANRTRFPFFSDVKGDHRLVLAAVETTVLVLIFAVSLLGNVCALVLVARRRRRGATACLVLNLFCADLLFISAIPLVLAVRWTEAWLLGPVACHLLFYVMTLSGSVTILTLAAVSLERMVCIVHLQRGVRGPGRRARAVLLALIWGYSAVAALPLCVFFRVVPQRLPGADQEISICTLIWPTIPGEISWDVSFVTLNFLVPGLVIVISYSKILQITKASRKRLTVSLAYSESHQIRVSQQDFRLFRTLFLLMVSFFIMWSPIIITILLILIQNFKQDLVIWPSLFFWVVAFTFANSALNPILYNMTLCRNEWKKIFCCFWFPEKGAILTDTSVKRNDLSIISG
measurement-protocol: DMR agonist assay in CHO-FFA4 cells
experimental-conditions: CHO-FFA4 cell, EC50, NPs-derived FFA4 agonists; DMR; CHO-FFA4 cells
pEC50: −log10 of the molar value.
experimental-endpoint: pEC50

1: CC(=O)O[C@H](CC=C(C)C)C1=CC(=O)c2c(O)ccc(O)c2C1=O
2: Cc1cc(O)c2c(c1)C(=O)c1cc(O)cc(O)c1C2=O
**Query** Hi there! Just curious which has the higher pEC50 between 1 and 2 . Indicate your choice by writing its label.
**Result** 1
